Tested on: Aspergillus frankstonensis
procedure details: checkerboard drug interaction (FICI, MICc);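 also: simplified diagonal checkerboard screen pairing antifungals with FPPS inhibitors, FICI calculated using the Loewe additivity model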
recorded conditions: in combination with ZOL
Kindly state antifungal MICc for each of the entries shown.
Give a plain numeric answer without units written out.

What antifungal MICc value was documented for this compound, C[C@@H](c1ncncc1F)[C@](O)(Cn1cncn1)c1ccc(F)cc1F ?
2

Can you look up the measured antifungal MICc of Nc1nc(=O)[nH]cc1F for me?
256

// returns reported antifungal MICc for input C[C@@H]1[C@H](O)[C@@H](C)/C=C/C=C/C=C/C=C/C=C/C=C/C=C/[C@H](O[C@@H]2O[C@H](C)[C@@H](O)[C@H](N)[C@@H]2O)C[C@@H]2O[C@](O)(C[C@@H](O)C[C@@H](O)[C@H](O)CC[C@@H](O)C[C@@H](O)CC(=O)O[C@H]1C)C[C@H](O)[C@H]2C(=O)O
2

So what's the measured antifungal MICc for this one? CCC(C)n1ncn(-c2ccc(N3CCN(c4ccc(OCC5COC(Cn6cncn6)(c6ccc(Cl)cc6Cl)O5)cc4)CC3)cc2)c1=O (stereo not drawn)
2

Which measured antifungal MICc value corresponds to CC[C@H](C)C[C@H](C)CCCCCCCCC(=O)N[C@H]1C[C@@H](O)[C@@H](NCCN)NC(=O)[C@@H]2[C@@H](O)CCN2C(=O)[C@H]([C@H](O)CCN)NC(=O)[C@H]([C@H](O)[C@@H](O)c2ccc(O)cc2)NC(=O)[C@@H]2C[C@@H](O)CN2C(=O)[C@H]([C@@H](C)O)NC1=O ?
0.5

Reported antifungal MICc, compound CC(=O)N1CCN(c2ccc(OCC3COC(Cn4ccnc4)(c4ccc(Cl)cc4Cl)O3)cc2)CC1 (stereo not drawn) : ____
4

----------
System: Saccharomyces cerevisiae
procedure details: checkerboard drug interaction (FICI, MICc)
Format: cell-based
recorded conditions: in combination with 10-ZOL
assay metric: antifungal MICc

Fill blank: measured antifungal MICc of the compound CCC(C)n1ncn(-c2ccc(N3CCN(c4ccc(OCC5COC(Cn6cncn6)(c6ccc(Cl)cc6Cl)O5)cc4)CC3)cc2)c1=O (stereo not shown) [ITR, itraconazole] is ____.
0.125

Quick check: antifungal MICc of CC[C@H](C)C[C@H](C)CCCCCCCCC(=O)N[C@H]1C[C@@H](O)[C@@H](NCCN)NC(=O)[C@@H]2[C@@H](O)CCN2C(=O)[C@H]([C@H](O)CCN)NC(=O)[C@H]([C@H](O)[C@@H](O)c2ccc(O)cc2)NC(=O)[C@@H]2C[C@@H](O)CN2C(=O)[C@H]([C@@H](C)O)NC1=O [CAS, caspofungin] ?
0.125

Looking for the measured antifungal MICc of CC(=O)N1CCN(c2ccc(OCC3COC(Cn4ccnc4)(c4ccc(Cl)cc4Cl)O3)cc2)CC1 (stereo not shown) [KET, ketoconazole] , can you help?
0.25

I'd like to know its antifungal MICc. The compound in question is C[C@@H](c1ncncc1F)[C@](O)(Cn1cncn1)c1ccc(F)cc1F [VOR]
0.25

# input compound: OC(Cn1cncn1)(Cn1cncn1)c1ccc(F)cc1F [FLC, fluconazole] ; wanted: its antifungal MICc
1

Item under review: C[C@@H]1[C@H](O)[C@@H](C)/C=C/C=C/C=C/C=C/C=C/C=C/C=C/[C@H](O[C@@H]2O[C@H](C)[C@@H](O)[C@H](N)[C@@H]2O)C[C@@H]2O[C@](O)(C[C@@H](O)C[C@@H](O)[C@H](O)CC[C@@H](O)C[C@@H](O)CC(=O)O[C@H]1C)C[C@H](O)[C@H]2C(=O)O [AMB, amphotericin B] . Reported antifungal MICc?
0.25

Look up antifungal MICc for this compound: Nc1nc(=O)[nH]cc1F [5FC, 5-flucytosine]
1

----------
Please provide measured INH FD (MIC-MICc fold decrease) for the entries that follow.
System: Cryptococcus neoformans
procedure details: checkerboard drug interaction (FICI, MICc)
Assay type: cell-based
recorded conditions: C. neoformans; ITR:INH combination; fold decrease of inhibitor MIC

Name the reported INH FD (MIC-MICc fold decrease) value associated with the molecule CCCCCCCCCN1CCC[C@H]1C(=O)N[C@@H](CC(=O)O)C(=O)O
2

Look up INH FD (MIC-MICc fold decrease) for this molecule: CCCCCCCCCN1CCC[C@H]1C(=O)N[C@@H](CC(=O)OC)C(=O)OC
-2

Please report the recorded INH FD (MIC-MICc fold decrease) for CCCCCCCCCN1CCC[C@H]1C(=O)N[C@H](CC(=O)O)C(=O)O .
2

Which INH FD (MIC-MICc fold decrease) value belongs to CCCCCCCCCCN1CCC[C@H]1C(=O)N[C@@H](CC(=O)OC)C(=O)OC ?
2

Recorded INH FD (MIC-MICc fold decrease) for CCCCCCCCCCCCN1CCC[C@H]1C(=O)N[C@H](CC(=O)OC)C(=O)OC , please?
1

Param item = CCCCCCCCCCCN1CCC[C@H]1C(=O)N[C@@H](CC(=O)O)C(=O)O ; retrieve measured INH FD (MIC-MICc fold decrease).
1

Using the record for CCCCCCCCCCN1CCC[C@H]1C(=O)N[C@H](CC(=O)OC)C(=O)OC , report its INH FD (MIC-MICc fold decrease).
2

Please give the measured INH FD (MIC-MICc fold decrease) for this molecule: O=P(O)(O)C(O)(Cn1ccnc1)P(=O)(O)O [ZOL, zoledronate]
16

For CCCCCCCCCN1CCC[C@H]1C(=O)N[C@H](CC(=O)OC)C(=O)OC , what is its reported INH FD (MIC-MICc fold decrease)?
1

Report INH FD (MIC-MICc fold decrease) for CCCCCCCCCCCN1CCC[C@H]1C(=O)N[C@H](CC(=O)OC)C(=O)OC please.
4

State the recorded INH FD (MIC-MICc fold decrease) for this entry: CCCCCCCCCCCN1CCC[C@H]1C(=O)N[C@@H](CC(=O)OC)C(=O)OC
2

Give the measured INH FD (MIC-MICc fold decrease) of CCCCCCCCCCCCN1CCC[C@H]1C(=O)N[C@@H](CC(=O)OC)C(=O)OC .
1

Look up INH FD (MIC-MICc fold decrease): CCCCCCCCCCCN1CCC[C@H]1C(=O)N[C@H](CC(=O)O)C(=O)O
1

I am curious: what INH FD (MIC-MICc fold decrease) value has been reported for CCCCCCCCCCCCN1CCC[C@H]1C(=O)N[C@H](CC(=O)O)C(=O)O ?
4

----------
Tested on: Saccharomyces cerevisiae
procedure details: checkerboard drug interaction (FICI, MICc);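 also: simplified diagonal checkerboard screen pairing antifungals with FPPS inhibitors, FICI calculated under the Loewe additivity model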
Format: cell-based
recorded conditions: MIC-MICc fold decrease of fluconazole; negative = increase
assay metric: FLC FD (FLC:INH)
Enter a number only.

Fill in: FLC FD (FLC:INH) of CCCCCCCCCCCCN1CCC[C@H]1C(=O)N[C@H](CC(=O)OC)C(=O)OC is ___
4

Query (compound): CCCCCCCCCCCCN1CCC[C@H]1C(=O)N[C@H](CC(=O)O)C(=O)O ; field requested: FLC FD (FLC:INH)
8

Request the reported FLC FD (FLC:INH) associated with CCCCCCCCCCCN1CCC[C@H]1C(=O)N[C@H](CC(=O)OC)C(=O)OC
-2

Could you tell me which FLC FD (FLC:INH) is on file for CCCCCCCCCCN1CCC[C@H]1C(=O)N[C@H](CC(=O)OC)C(=O)OC ?
-2

----------
Test system: Cryptococcus neoformans
procedure details: checkerboard drug interaction (FICI, MICc)
Assay type: cell-based
recorded conditions: C. neoformans; FLC:INH combination; MIC of the inhibitor in combination with FLC
Everything with INH MICc lower than 30 is F; everything else, including exactly 30, is T.

Please check the record CCCCCCCCCCCN1CCC[C@H]1C(=O)N[C@H](CC(=O)O)C(=O)O [PDA11] and state if its INH MICc is at or above 30.
T

Could you please find out whether CCCCCCCCCCN1CCC[C@H]1C(=O)N[C@@H](CC(=O)OC)C(=O)OC [dmPLA10] has INH MICc that meets 30 or exceeds it?
F

Is the recorded value of INH MICc equal to or greater than 30 for this compound? CCCCCCCCCCn1cc[n+](CC(O)(P(=O)(O)O)P(=O)(O)O)c1 [10-ZOL, Decyl-zoledronate]
F

Exam item: decide whether the reported INH MICc for CCCCCCCCCCCCN1CCC[C@H]1C(=O)N[C@@H](CC(=O)OC)C(=O)OC [dmPLA12] is at least 30.
T

Would you say O=P(O)(O)C(O)(Cn1ccnc1)P(=O)(O)O [ZOL, zoledronate] shows INH MICc at minimum 30?
F

Hi, just wondering whether CCCCCCCCCCCN1CCC[C@H]1C(=O)N[C@@H](CC(=O)OC)C(=O)OC [dmPLA11] shows INH MICc of 30 or higher.
T

Could you tell me if the measured INH MICc of CCCCCCCCCCCN1CCC[C@H]1C(=O)N[C@H](CC(=O)OC)C(=O)OC [dmPDA11] reaches 30 or more?
T

I'd appreciate it if you could say whether CCCCCCCCCCCCN1CCC[C@H]1C(=O)N[C@H](CC(=O)O)C(=O)O [PDA12] has INH MICc at least equal to 30.
T

Hi, just wondering whether CCCCCCCCCN1CCC[C@H]1C(=O)N[C@@H](CC(=O)O)C(=O)O [PLA9] shows INH MICc of 30 or higher.
T

# check: INH MICc of CCCCCCCCCN1CCC[C@H]1C(=O)N[C@H](CC(=O)O)C(=O)O [PDA9] is greater than or equal to 30
T

INH MICc >= 30 for CCCCCCCCCCCCN1CCC[C@H]1C(=O)N[C@H](CC(=O)OC)C(=O)OC [dmPDA12] ?
F

Answer whether INH MICc of CCCCCCCCCN1CCC[C@H]1C(=O)N[C@H](CC(=O)OC)C(=O)OC [dmPDA9] is greater than or equal to 30.
T

Please indicate if the recorded INH MICc for CCCCCCCCCN1CCC[C@H]1C(=O)N[C@@H](CC(=O)OC)C(=O)OC [dmPLA9] meets or exceeds 30.
T

Reported INH MICc reaches at least 30 for CCCCCCCCCCN1CCC[C@H]1C(=O)N[C@H](CC(=O)OC)C(=O)OC [dmPDA10] ?
F

Would you say CCCCCCCCCCCN1CCC[C@H]1C(=O)N[C@@H](CC(=O)O)C(=O)O [PLA11] shows INH MICc at minimum 30?
T
